Target: alpha2A receptor (Homo sapiens, UniProt P08913)
Sequence (P08913 1-465): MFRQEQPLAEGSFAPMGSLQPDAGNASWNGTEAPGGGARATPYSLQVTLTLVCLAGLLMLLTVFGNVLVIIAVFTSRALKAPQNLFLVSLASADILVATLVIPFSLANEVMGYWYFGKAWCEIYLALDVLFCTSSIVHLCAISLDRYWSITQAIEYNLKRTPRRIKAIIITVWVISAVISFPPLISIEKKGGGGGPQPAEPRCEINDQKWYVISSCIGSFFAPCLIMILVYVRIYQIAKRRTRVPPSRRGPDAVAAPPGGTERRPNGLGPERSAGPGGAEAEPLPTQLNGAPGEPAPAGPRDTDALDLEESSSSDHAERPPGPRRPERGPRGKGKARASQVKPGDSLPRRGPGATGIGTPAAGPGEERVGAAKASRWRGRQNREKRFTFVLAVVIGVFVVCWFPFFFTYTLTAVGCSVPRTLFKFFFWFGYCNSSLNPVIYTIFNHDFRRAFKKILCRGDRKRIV
Experiment: Alpha2A agonistic activity in vitro
Assay type: cell-based
Details: in vitro
I'd be grateful if you could share measured Alpha2A Intrinsic Activity for these entries.
Could you respond with only the numeric value?

*Q* Please look up its Alpha2A Intrinsic Activity: c1cc2c3c(c1)C(C1=NCCN1)OCC3CCCC2 (stereo not shown)
*A* 0.11

*Q* Please look up its Alpha2A Intrinsic Activity: COCC1Cc2c(C)cccc2C(C2=NCCN2)O1 (stereo not shown)
*A* 0.35

*Q* Please look up its Alpha2A Intrinsic Activity: CCC1OC(C2=NCCN2)c2cccc3cccc1c23 (stereo not shown)
*A* 0.66

*Q* Please look up its Alpha2A Intrinsic Activity: Cc1cccc2c1CC(C)OC2C1=NCCN1 (stereo not shown)
*A* 0.82

*Q* Please look up its Alpha2A Intrinsic Activity: COc1cccc2c1C[C@H](C)OC2C1=NCCN1 (stereo partly shown)
*A* 0.72

*Q* Please look up its Alpha2A Intrinsic Activity: CC1Cc2c(Cl)cccc2C(C)(C2=NCCN2)O1 (stereo not shown)
*A* 0.64

*Q* Please look up its Alpha2A Intrinsic Activity: COc1cccc2c1C[C@@H](C)OC2C1=NCCN1 (stereo partly shown)
*A* 0.83

*Q* Please look up its Alpha2A Intrinsic Activity: Brc1cccc2c1CCOC2C1=NCCN1 (single isomer, unassigned) [Example 101]
*A* 0.89

*Q* Please look up its Alpha2A Intrinsic Activity: CCCC1Cc2c(Br)cccc2C(C2=NCCN2)O1 (single isomer, unassigned) [Example 88]
*A* 0.50

*Q* Please look up its Alpha2A Intrinsic Activity: N#Cc1cccc2c1CCOC2C1=NCCN1 (stereo not shown)
*A* 0.59

*Q* Please look up its Alpha2A Intrinsic Activity: CC1(C2=NCCN2)OCCc2c(Br)cccc21 (stereo not shown) [Example 11]
*A* 0.83

*Q* Please look up its Alpha2A Intrinsic Activity: Clc1cccc2c1CCOC2C1=NCCN1 (single isomer, unassigned) [Example 100]
*A* 0.91

*Q* Please look up its Alpha2A Intrinsic Activity: CCC1Cc2c(Br)cc(Br)cc2C(C2=NCCN2)O1 (stereo not shown)
*A* 0.42

*Q* Please look up its Alpha2A Intrinsic Activity: Ic1cccc2c1CCOC2C1=NCCN1 (stereo not shown)
*A* 0.81

*Q* Please look up its Alpha2A Intrinsic Activity: Cc1cccc2c1C[C@@H](C)OC2(C)C1=NCCN1 (stereo partly shown)
*A* 0.68

*Q* Please look up its Alpha2A Intrinsic Activity: C=CCc1cccc2c1CCOC2C1=NCCN1 (stereo not shown)
*A* 0.53

*Q* Please look up its Alpha2A Intrinsic Activity: Cc1cccc2c1CCSC2C1=NCCN1 (stereo not shown)
*A* 0.59

*Q* Please look up its Alpha2A Intrinsic Activity: Cc1cccc2c1CCOC2(C)C1=NCCN1 (single isomer, unassigned) [Example 21]
*A* 0.73

*Q* Please look up its Alpha2A Intrinsic Activity: CCOc1cccc2c1CCOC2C1=NCCN1 (stereo not shown)
*A* 0.26

*Q* Please look up its Alpha2A Intrinsic Activity: CC(C)c1cccc2c1CCOC2C1=NCCN1 (stereo not shown)
*A* 0.27

*Q* Please look up its Alpha2A Intrinsic Activity: Clc1cccc2c1CCOC2C1=NCCN1 (stereo not shown) [Example 4]
*A* 0.85

*Q* Please look up its Alpha2A Intrinsic Activity: CCC1Cc2c(O)cccc2C(C2=NCCN2)O1 (stereo not shown)
*A* 0.15

* * *

molecular target: alpha2A receptor (Homo sapiens); assay: Alpha2A agonistic activity in vitro; type: cell-based; conditions: Alpha2A Agonism pEC50, in vitro
Counter-ions that a name gives are not always drawn.
I'd be grateful if you could share measured EC50 for these entries.
Return type: number; implicit unit nM.

*Q* Please look up its EC50: Cc1cccc2c1CC(CC(F)F)OC2C1=NCCN1 (stereo not drawn) [Example 84]
*A* 100

*Q* Please look up its EC50: C[C@@H]1Cc2c(OC(F)F)cccc2C(C2=NCCN2)O1 (stereo partly drawn) [Example 93]
*A* 31.6

*Q* Please look up its EC50: Brc1cccc2c1CCSC2C1=NCCN1 (stereo not drawn) [Example 65]
*A* 79.4

*Q* Please look up its EC50: CCc1cccc2c1CCOC2C1=NCCN1 (single isomer, unassigned) [Example 96]
*A* 20

*Q* Please look up its EC50: Ic1cccc2c1CCOC2C1=NCCN1 (stereo not drawn) [Example 18]
*A* 2

*Q* Please look up its EC50: CC[C@@H]1Cc2c(C)cccc2C(C2=NCCN2)O1 (stereo partly drawn) [Example 48]
*A* 25.1

*Q* Please look up its EC50: Cc1cccc2c1CCOC2C1=NCCN1 (stereo not drawn) [Example 1]
*A* 3.98

*Q* Please look up its EC50: C[C@@H]1Cc2c(F)cccc2C(C2=NCCN2)O1 (stereo partly drawn) [Example 50]
*A* 25.1

*Q* Please look up its EC50: CC1COC(C2=NCCN2)c2cccc(Br)c21 (stereo not drawn) [Example 20]
*A* 63.1

*Q* Please look up its EC50: Cc1cccc2c1CC(C)OC2C1=NCCN1 (stereo not drawn) [Example 25]
*A* 3.16

*Q* Please look up its EC50: CC1(C2=NCCN2)OCCc2c(Br)cccc21 (stereo not drawn) [Example 11]
*A* 100

*Q* Please look up its EC50: CCc1cccc2c1CCOC2C1=NCCN1 (stereo not drawn) [Example 8]
*A* 39.8

*Q* Please look up its EC50: C[C@H]1Cc2c(Cl)cccc2C(C2=NCCN2)O1 (stereo partly drawn) [Example 34]
*A* 63.1

*Q* Please look up its EC50: Clc1cccc2c1CCOC2C1=NCCN1 (single isomer, unassigned) [Example 92]
*A* 31.6

*Q* Please look up its EC50: C[C@@H]1Cc2c(Br)cccc2C(C2=NCCN2)O1 (stereo partly drawn) [Example 32]
*A* 1

*Q* Please look up its EC50: C[C@@H]1Cc2c(cccc2C(F)(F)F)C(C2=NCCN2)O1 (stereo partly drawn) [Example 19]
*A* 5.01

*Q* Please look up its EC50: Brc1cccc2c1CCOC2C1=NCCN1 (single isomer, unassigned) [Example 101]
*A* 3.16

*Q* Please look up its EC50: CCCC1Cc2c(Br)cccc2C(C2=NCCN2)O1 (single isomer, unassigned) [Example 88]
*A* 50.1

*Q* Please look up its EC50: CC1Cc2c(Br)cccc2C(C2=NCCN2)O1 (stereo not drawn) [Example 29]
*A* 2

*Q* Please look up its EC50: CCC1Cc2c(Br)cccc2C(C2=NCCN2)O1 (stereo not drawn) [Example 43]
*A* 50.1

*Q* Please look up its EC50: CCc1cccc2c1C[C@@H](C)OC2C1=NCCN1 (stereo partly drawn) [Example 45]
*A* 6.31

*Q* Please look up its EC50: CCc1cccc2c1CC(C)OC2C1=NCCN1 (stereo not drawn) [Example 39]
*A* 15.8

*Q* Please look up its EC50: C#Cc1cccc2c1CCOC2C1=NCCN1 (stereo not drawn) [Example 15]
*A* 15.8

*Q* Please look up its EC50: CCC1Cc2c(Br)cccc2C(C2=NCCN2)O1 (single isomer, unassigned) [Example 94]
*A* 25.1

*Q* Please look up its EC50: CC[C@@H]1Cc2c(OC)cccc2C(C2=NCCN2)O1 (stereo partly drawn) [Example 91]
*A* 39.8

*Q* Please look up its EC50: CC1Cc2c(Cl)cccc2C(C2=NCCN2)O1 (stereo not drawn) [Example 26]
*A* 3.98

*Q* Please look up its EC50: Cc1cccc2c1CCOC2(C)C1=NCCN1 (stereo not drawn) [Example 3]
*A* 63.1

*Q* Please look up its EC50: c1cc2c3c(cccc3c1)C(C1=NCCN1)OC2 (stereo not drawn) [Example 102]
*A* 2.51

*Q* Please look up its EC50: C=CCc1cccc2c1CCOC2C1=NCCN1 (stereo not drawn) [Example 6]
*A* 39.8

*Q* Please look up its EC50: Fc1cccc2c1CCOC2C1=NCCN1 (stereo not drawn) [Example 42]
*A* 39.8

*Q* Please look up its EC50: COc1cccc2c1C[C@@H](C)OC2C1=NCCN1 (stereo partly drawn) [Example 44]
*A* 7.94

*Q* Please look up its EC50: CSc1cccc2c1CCOC2C1=NCCN1 (stereo not drawn) [Example 87]
*A* 63.1

*Q* Please look up its EC50: CC1(C2=NCCN2)OCc2cccc3cccc1c23 (stereo not drawn) [Example 98]
*A* 12.6

*Q* Please look up its EC50: Cc1cccc2c1CC(CC(F)F)OC2C1=NCCN1 (single isomer, unassigned) [Example 89, hydrochloride]
*A* 39.8

*Q* Please look up its EC50: CCC1Cc2c(OC)cccc2C(C2=NCCN2)O1 (stereo not drawn) [Example 46]
*A* 79.4

*Q* Please look up its EC50: C[C@@H]1Cc2c(Cl)cccc2C(C2=NCCN2)O1 (stereo partly drawn) [Example 33]
*A* 1.58

*Q* Please look up its EC50: Cc1cc(C)c2c(c1)C(C1=NCCN1)OCC2 (stereo not drawn) [Example 59]
*A* 39.8

*Q* Please look up its EC50: COc1cccc2c1CC(C)OC2C1=NCCN1 (stereo not drawn) [Example 38]
*A* 12.6

*Q* Please look up its EC50: C=Cc1cccc2c1CCOC2C1=NCCN1 (stereo not drawn) [Example 7]
*A* 39.8

*Q* Please look up its EC50: Clc1cccc2c1CCOC2C1=NCCN1 (single isomer, unassigned) [Example 100]
*A* 3.98

*Q* Please look up its EC50: Cc1cccc2c1C[C@@H](C)OC2C1=NCCN1 (stereo partly drawn) [Example 36]
*A* 1.58

*Q* Please look up its EC50: Clc1cccc2c1CCOC2C1=NCCN1 (stereo not drawn) [Example 4]
*A* 7.94
